- procedure.summary: chemical genetic growth profiling, strain panel (AID 1159580);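 also: tested at 20 µM; growth read once vehicle control cultures reached saturation at 30 °C; 1 = growth at the plate median or of vehicle wells; lower values mean less growth of the strain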
- run.parameters: S. cerevisiae deletion strains, growth OD, locus YHR030C, strain SLT2
The campaign covered roughly 5,500 compounds. About 2,000 (36%) were called active. About 18% were inconclusive and are not listed. Rule as the data show it: active = normalized growth mostly below about 0.91 (no sharp cut-off); inconclusive = no clear call, values can overlap the other calls; inactive = mostly above about 0.92. Some of the results follow.
Can you answer with just one of these options? true (active), false (inactive)

compound: COc1cc(/C=C2\NC(=O)NC2=O)ccc1O
label: false

compound: COc1cc(O)c(C(=O)/C=C/c2ccc(OC)c(O)c2)c(OC)c1
label: false

compound: Cc1ccccc1C(=O)Oc1ccc(C(F)(F)F)cc1[N+](=O)[O-]
label: true

compound: COc1cc(/C=C/C(=O)/C=C(O)/C=C/c2ccc(O)c(OC)c2)ccc1O
label: true

compound: CC1(C)C(C=C(Cl)Cl)C1C(=O)OC(C#N)c1cccc(Oc2ccccc2)c1 (configuration not stated)
label: false

Please indicate how the test categorized C[C@@H]1[C@H]2[C@H](O[C@@H]3O[C@H](CO)[C@@H](O)[C@H](O)[C@H]3O)OC=C(C(=O)O)[C@H]2C[C@@H]1O .
false

Please indicate how the test categorized COc1cc(O)c(C(=O)/C=C/c2ccc(O)c(OC)c2)c(OC)c1 .
false

Please indicate how the test categorized C=C1C([C@]2(C)C(CC(=O)OC)[C@@](C)(COC(C)=O)OC(=O)C[C@@H]2OC(C)=O)[C@@H](OC=O)[C@H](OC(=O)C(OC(C)=O)C(C)CC)[C@@]2(C)[C@H](c3ccoc3)CC(=O)C12O (some centres not stated) .
false

Please indicate how the test categorized COC(=O)c1sccc1OC(=O)c1c(F)cccc1F .
false

Please indicate how the test categorized CC(=O)NC1SCCC1=O (configuration not stated) .
false

Please indicate how the test categorized COc1cc(O)c(C(=O)/C=C/c2ccccc2)c(OC)c1 .
false

Please indicate how the test categorized O=C(Oc1ccc(C(F)(F)F)cc1[N+](=O)[O-])c1cccc(Cl)c1 .
true

Please indicate how the test categorized O=C(Oc1ccc(C(F)(F)F)cc1[N+](=O)[O-])c1c(F)cccc1F .
true

Please indicate how the test categorized Cc1ccc(OCC2SCCN2C(=O)c2ccc(C(F)(F)F)cc2)c([N+](=O)[O-])c1 (configuration not stated) .
false

Please indicate how the test categorized CC1CC2C3CCC4=CC(=O)C=C[C@]4(C)[C@@]3(F)[C@@H](O)C[C@]2(C)[C@@]1(O)C(=O)CO (some centres not stated) .
false

Please indicate how the test categorized C=C1C([C@]2(C)C(CC(=O)OC)[C@@](C)(COC(C)=O)OC(=O)C[C@@H]2OC(C)=O)[C@@H](OC=O)[C@H](OC(=O)C(O)C(C)CC)[C@@]2(C)[C@H](c3ccoc3)CC(=O)C12O (some centres not stated) .
false

Please indicate how the test categorized CC1=C(/C=C/C(C)=C/C=C/C(C)=C/C=C/C=C(C)/C=C/C=C(C)/C=C/C(=O)[C@]2(C)C[C@@H](O)CC2(C)C)C(C)(C)C[C@H](O)C1 .
false

---

Measured normalized growth values are reported for all entries that follow.
- procedure.summary: chemical genetic growth profiling, strain panel (AID 1159580)
- run.parameters: S. cerevisiae deletion strains, growth OD, locus YLR370C, strain arc18, active compounds read low
Hit rate of the full screen: of about 5,500 compounds, about 2,000 (36%) were called active. Another 18% or so got no clear call; they are omitted. Some of the results follow.

molecule: CC(=O)N[C@@H](CC(C)C)C(=O)O
measured.value: 0.982 (inactive)
//
molecule: COc1cc2c(cc1OC)[C@@H]1C(=O)c3ccc(O)c(CC=C(C)C)c3O[C@@H]1CO2
measured.value: 1 (inactive)
//
molecule: C=Cc1c2[nH]c(c1C)C=c1[nH]c(c(C)c1C=C)=CC1N=C(C=c3[nH]c(c(C)c3CCC(=O)O)=C2)C(CCC(=O)O)=C1C (configuration not stated)
measured.value: 0.999 (inactive)
//
molecule: CC(C)(O)[C@@H]1[C@H]2OC(=O)[C@@H]1[C@]1(O)C[C@H]3O[C@]34C(=O)O[C@H]2[C@]14C
measured.value: 1 (inactive)
//
molecule: COc1ccc2c(c1OC)C(=O)O[C@H]2[C@H]1c2cc3c(cc2CCN1C)OCO3
measured.value: 0.994 (inactive)
//
molecule: CCC(=O)O[C@H]1[C@H](O[C@@H]2[C@@H](C)[C@H](O[C@H]3C[C@@](C)(OC)[C@@H](O)[C@H](C)O3)[C@@H](C)C(=O)O[C@H](CC)[C@@](C)(O)[C@H](O)[C@@H](C)C(=O)[C@H](C)C[C@@]2(C)O)O[C@H](C)C[C@@H]1N(C)C
measured.value: 1 (inactive)
//
molecule: CC1=C(/C=C/C(C)=C/C=C/C(C)=C/C=C/C=C(C)/C=C/C=C(C)/C=C/C2=C(C)C(=O)C(O)CC2(C)C)C(C)(C)CC(O)C1=O (configuration not stated)
measured.value: 1.06 (inactive)
//
molecule: CC(N)CCCC(C)(C)O (configuration not stated)
measured.value: 0.988 (inactive)
//
molecule: COc1cc2c(cc1OC)[C@@H]1C(=O)c3ccc4c(c3O[C@@H]1CO2)C=CC(C)(C)O4
measured.value: 1.01 (inactive)
//
molecule: CCOC(=O)CCC(=O)O[C@H]1[C@H](O[C@@H]2[C@@H](C)[C@H](O[C@H]3C[C@@](C)(OC)[C@@H](O)[C@H](C)O3)[C@@H](C)C(=O)O[C@H](CC)[C@@](C)(O)[C@H](O)[C@@H](C)C(=O)[C@H](C)C[C@@]2(C)O)O[C@H](C)C[C@@H]1N(C)C
measured.value: 1.02 (inactive)

Which normalized growth value belongs to COc1ccc2c(c1OC)C(=O)O[C@@H]2[C@H]1c2cc3c(cc2CCN1C)OCO3 ?
1 (inactive)

Which normalized growth value belongs to COc1cc2c(cc1OC)[C@@H]1C(=O)c3ccc(OC)c(CC=C(C)C)c3O[C@@H]1CO2 ?
1.02 (inactive)

---

- procedure.summary: chemical genetic growth profiling, strain panel (AID 1159580);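 also: tested at 20 µM; growth read once vehicle control cultures reached saturation at 30 °C; 1 = growth at the plate median or of vehicle wells; lower values mean less growth of the strain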
- run.parameters: S. cerevisiae deletion strains, growth OD, locus YKR001C, strain vps1, active compounds read low
Hit rate of the full screen: of about 5,500 compounds, about 2,000 (36%) were called active. Roughly 18% stayed inconclusive and do not appear here. The list shows a part of the results.
Rule: measured normalized growth below 1 gets true; anything equal to or greater than 1 gets false.

compound: CCC(=O)O[C@H]1CCC2C3CCC4=CC(=O)CC[C@]4(C)C3CC[C@@]21C (some centres undefined)
label: true

State whether 1 exceeds normalized growth recorded for CCCCCCCCCCCCCCCC[N+](C)(C)C .
true

State whether 1 exceeds normalized growth recorded for C[C@]12CCC(=O)C=C1CCC1C2CC[C@@]2(C)C1CC[C@@H]2O (some centres undefined) .
false

---

- procedure.summary: chemical genetic growth profiling, strain panel (AID 1159580);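 also: tested at 20 µM; growth read once vehicle control cultures reached saturation at 30 °C; 1 = growth at the plate median or of vehicle wells; lower values mean less growth of the strain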
- run.parameters: S. cerevisiae deletion strains, growth OD, locus YNL298W, strain CLA4, active compounds read low
About 2,000 (36%) of roughly 5,500 compounds were called active. About 18% were inconclusive and are not listed. The list shows a part of the results.
assay.endpoint: normalized growth
# print the numeric value only

Solved cases below.
compound: COc1ccc2c(c1OC)C(=O)O[C@@H]2[C@H]1c2cc3c(cc2CCN1C)OCO3
normalized growth: 1.03
--
compound: COc1cc(O)c(C(=O)/C=C/c2ccccc2)c(OC)c1
normalized growth: 0.879
--
compound: CN(C)c1ccc(C(=C2C=CC(=[N+](C)C)C=C2)c2ccc(N(C)C)cc2)cc1
normalized growth: 0.511
--
compound: C[C@@H]1[C@H]2[C@H](O[C@@H]3O[C@H](CO)[C@@H](O)[C@H](O)[C@H]3O)OC=C(C(=O)O)[C@H]2C[C@@H]1O
normalized growth: 0.991
--
compound: COc1ccc2c(c1OC)C(=O)O[C@H]2[C@H]1c2cc3c(cc2CCN1C)OCO3
normalized growth: 1.01

Which normalized growth value belongs to O=C(CC[N+](=O)[O-])OC[C@H]1O[C@@H](O)[C@H](OC(=O)CC[N+](=O)[O-])[C@@H](OC(=O)CC[N+](=O)[O-])[C@@H]1OC(=O)CC[N+](=O)[O-] ?
1.01

Which normalized growth value belongs to CC(N)C(=O)OC(C)(C)Cc1ccc(Cl)cc1 (centres undefined) ?
0.981

Which normalized growth value belongs to O=C1C=CC(=C(c2ccc(O)cc2)c2ccc(O)cc2)C=C1 ?
0.981

Which normalized growth value belongs to CC(C)OC(=O)C(C)(C)Oc1ccc(C(=O)c2ccc(Cl)cc2)cc1 ?
0.992

---

- procedure.summary: chemical genetic growth profiling, strain panel (AID 1159580);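 also: tested at 20 µM; growth read once vehicle control cultures reached saturation at 30 °C; 1 = growth at the plate median or of vehicle wells; lower values mean less growth of the strain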
- run.parameters: S. cerevisiae deletion strains, growth OD, locus YNL233W, strain BNI4, active compounds read low
About 2,000 (36%) of roughly 5,500 compounds were called active. Another 18% or so got no clear call; they are omitted. Some of the results follow.
assay.endpoint: normalized growth
# print the numeric value only

compound: COc1ccc2c(c1)OCc1c-2oc2cc(OC)ccc12
measured.value: 0.9
--
compound: CC(=O)OCC(=O)[C@@]1(O)CCC2C3CCC4=CC(=O)CC[C@]4(C)C3C(=O)C[C@@]21C (some centres undefined)
measured.value: 1.01
--
compound: CC1=C(/C=C/C(C)=C/C=C/C(C)=C/C=C/C=C(C)/C=C/C=C(C)/C=C/C2=C(C)C(=O)C(O)CC2(C)C)C(C)(C)CC(O)C1=O (centres undefined)
measured.value: 1.05

Which normalized growth value belongs to CC(=O)OCC(=O)[C@H]1CCC2C3CCC4=CC(=O)CC[C@]4(C)C3CC[C@@]21C (some centres undefined) ?
0.871

Which normalized growth value belongs to COc1ccc2c(C)cc(=O)oc2c1 ?
1.02

Which normalized growth value belongs to CC(C)CC(NC(=O)C(Cc1ccccc1)NC(=O)CNC(=O)CNC(=O)C(N)Cc1ccc(O)cc1)C(=O)O (centres undefined) ?
1.04
